Would you mind telling me the reported 2-weeks potency loss at 40° C. of each entry?
testDescription: Terpene oxidation with ascorbic acid or EDTA at 40° C.
Format: physicochemical
testConditions: 50 ppm ascorbic acid
Give bare numbers, in %.

{"compound": "CC1=CCC2CC1C2(C)C (stereo not drawn) [α-pinene]", "unitAbbreviation": "%", "2-weeks potency loss at 40° C.": 4}
{"compound": "C=C(C)[C@H]1CC=C(C)CC1 [limonene]", "unitAbbreviation": "%", "2-weeks potency loss at 40° C.": 7}

# batch: return 2-weeks potency loss at 40° C. for each of the 2 compounds below
1. C=CC(=C)CCC=C(C)C [myrcene]
2. C=CC(C)(O)CCC=C(C)C (stereo not shown) [linalool]

1. 3
2. 6

###

testDescription: Terpene oxidation with ascorbic acid or EDTA at 40° C.
Assay type: physicochemical
testConditions: No antioxidant
Text: However, nearly all terpenes can be oxidized and some can oxidize faster than others. When terpenes are put into a ready-to-drink beverage, the chemical degradation that can be caused by oxidation needs to be considered. When the oxidation happens, it not only diminishes the designed effect of the product, but it also creates unknown by-products that can be potentially harmful to consume. Oxidation rate of α-pinene and limonene was compared with the addition of ascorbic acid and EDTA.
valueKind: 2-weeks potency loss at 40° C. (%)
One number for each entry, in %.

{"compound": "C=CC(C)(O)CCC=C(C)C (stereo not shown) [linalool]", "unitAbbreviation": "%", "2-weeks potency loss at 40° C.": 46}
{"compound": "C=CC(=C)CCC=C(C)C [myrcene]", "unitAbbreviation": "%", "2-weeks potency loss at 40° C.": 38}
{"compound": "CC1=CCC2CC1C2(C)C (stereo not drawn) [α-pinene]", "unitAbbreviation": "%", "2-weeks potency loss at 40° C.": 57}

Which 2-weeks potency loss at 40° C. reading was recorded for the compound C=C(C)[C@H]1CC=C(C)CC1 [limonene] ?
68
